Values from ChEMBL document CHEMBL1153971

Below: a set of entries, each annotated with reported Growth_index.
tested on: Mycobacterium tuberculosis; assay: Antimycobacterial activity against Mycobacterium tuberculosis H37Rv ATCC 27294 assessed as growth index at 6.25 ug/mL after 9 days by radiometric method; type: functional
A bare number is all that is needed in reply.

| Molecule | Assayed system | Observation type | Measured |
| --- | --- | --- | --- |
| COc1nc2ccc(Br)cc2cc1C(c1ccccc1)n1cccn1 (racemic) | Mycobacterium tuberculosis | Growth_index | 0 |

Request: Growth_index lookup needed for COc1nc2ccc(Br)cc2cc1C(c1ccccc1)N1CCN(c2cccc(C(F)(F)F)c2)CC1 (centres undefined) , thanks.
Result: 0

Request: // next record COc1nc2ccc(Br)cc2cc1C(c1ccccc1)n1ccnc1 (racemic)
Result: 56

Request: Lookup COc1nc2ccc(Br)cc2cc1C(Nc1ccc2oc(=O)ccc2c1)c1ccccc1 (racemic)
Result: 55

====

assay: Cytotoxicity against human THP1 cells assessed as cell viability at 1 ug/100 mL after 72 hrs by MTT assay; assay type: cell-based; details: THP-1 cells, read-out: Activity
compounds and their reported viability at 72 h, 1 ug/100 mL
Respond numerically; units are % and should not be typed.

Would you please look over these solved cases?
| Compound | Readout units | viability at 72 h, 1 ug/100 mL |
| --- | --- | --- |
| COc1nc2ccc(Br)cc2cc1C(c1ccccc1)n1cccn1 (racemic) | % | 100 |
| COc1nc2ccc(Br)cc2cc1C(c1ccccc1)N1CCN(c2cccc(C(F)(F)F)c2)CC1 (centres undefined) | % | 100 |
| COc1nc2ccc(Br)cc2cc1C(Nc1ccc2oc(=O)ccc2c1)c1ccccc1 (racemic) | % | 100 |

Could you now look at the following compound, please?
Request: viability at 72 h, 1 ug/100 mL for COc1nc2ccc(Br)cc2cc1C(c1ccccc1)n1ccnc1 (racemic) ?
Result: 67

====

# Growth_index values compiled below
tested on: Mycobacterium tuberculosis; assay: Antimycobacterial activity against Mycobacterium tuberculosis H37Rv ATCC 27294 assessed as growth index at 6.25 ug/mL after 8 days by radiometric method; assay type: functional
Write the number on its own, no unit after it.

Guide cases for Growth_index, answers given:
| Molecule | Growth_index |
| --- | --- |
| COc1nc2ccc(Br)cc2cc1C(c1ccccc1)n1cccn1 (racemic) | 0 |
| COc1nc2ccc(Br)cc2cc1C(Nc1ccc2oc(=O)ccc2c1)c1ccccc1 (racemic) | 53 |
| COc1nc2ccc(Br)cc2cc1C(c1ccccc1)n1ccnc1 (racemic) | 35 |

Now take the following molecule into account.
Request: Request the reported Growth_index associated with COc1nc2ccc(Br)cc2cc1C(c1ccccc1)N1CCN(c2cccc(C(F)(F)F)c2)CC1 (centres undefined)
Result: 0

====

assay: Cytotoxicity against human THP1 cells assessed as cell viability at 10 ug/100 mL after 72 hrs by MTT assay; format: cell-based; conditions: THP-1 cells, read-out: Activity
Observation type: viability at 72 h, 10 ug/100 mL (%)
Report the figure in % without appending any unit label.

Some solved entries appear below for comparison.
| Compound | Readout units | Measured |
| --- | --- | --- |
| COc1nc2ccc(Br)cc2cc1C(Nc1ccc2oc(=O)ccc2c1)c1ccccc1 (racemic) | % | 100 |
| COc1nc2ccc(Br)cc2cc1C(c1ccccc1)N1CCN(c2cccc(C(F)(F)F)c2)CC1 (centres undefined) | % | 97 |

Request: Which measured viability at 72 h, 10 ug/100 mL value corresponds to COc1nc2ccc(Br)cc2cc1C(c1ccccc1)n1ccnc1 (racemic) ?
Result: 67

Request: Proceed to COc1nc2ccc(Br)cc2cc1C(c1ccccc1)n1cccn1 (racemic)
Result: 98
